The measurements presented in this section are drawn from paper PMC10240976.

Consider the following binders; for each one, report its other.
# tested.target: T1, mRFP-GABARAPL1 (UniProt Q9H0R8 1-117)
# T1 construct: also called membrane-anchored GABARAPL1
# T1 sequence (Q9H0R8 whole entry): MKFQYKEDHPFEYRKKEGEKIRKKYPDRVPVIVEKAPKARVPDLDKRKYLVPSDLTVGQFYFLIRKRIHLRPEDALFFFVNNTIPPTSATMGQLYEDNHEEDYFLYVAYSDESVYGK
# assay.notes: recruitment of LIR-GFP or gProbe
# Parameters: unit not given here
# setup.conditions: partners not purified
Answers are plain numbers.

Some entries whose results are on file:
# binder, other
measured = [
    ("NSQDRVDHEEWEMVPRHSSWGDVGV (domain or fragment, also called STBD1 (St); source: HKO HeLa cells, transfected, in cells; not shown: GFP, C-terminal, kept) [LIR(St)-GFP]", 5.08),
    ("FALEETLESDWVAVRPHVFDEREKH (domain or fragment, source: HKO HeLa cells, transfected, in cells; not shown: GFP, C-terminal, kept) [LIR(JMY)-GFP]", 1.46),
    ("PSEDSPLLEDWDIISPKDVIGSDVL (domain or fragment, source: HKO HeLa cells, transfected, in cells; not shown: GFP, C-terminal, kept) [LIR(TBC1D25)-GFP]", 1.41),
]

Sample LRAKRPSSEDFVFL (domain or fragment, source: HKO HeLa cells, transfected, in cells; not shown: GFP, C-terminal, kept) [LIR(ATG4D)-GFP] ; other observed: 2.65
